System: LCLC-97TM1
Assay: relative viability (nuclei count vs DMSO), 5 days (fraction); higher = more cells survive
Conditions: first compound 0.002 µM
Endpoint: relative viability
Lab note: jot the number down without any unit.

Worked set:
{"columns": ["Compound", "Target Of Assay", "relative viability"],
 "data": [
  ["CC(=O)O[C@@]12CO[C@@H]1C[C@H](O)[C@@]1(C)C(=O)[C@H](O)C3=C(C)[C@@H](OC(=O)[C@H](O)[C@@H](NC(=O)OC(C)(C)C)c4ccccc4)C[C@@](O)([C@@H](OC(=O)c4ccccc4)[C@H]21)C3(C)C [Docetaxel] + Nc1ncn([C@H]2C[C@H](O)[C@@H](CO)O2)c(=O)n1 [Decitabine] (partner 2 µM)", "LCLC-97TM1", 0.133],
  ["CC(=O)O[C@@]12CO[C@@H]1C[C@H](O)[C@@]1(C)C(=O)[C@H](O)C3=C(C)[C@@H](OC(=O)[C@H](O)[C@@H](NC(=O)OC(C)(C)C)c4ccccc4)C[C@@](O)([C@@H](OC(=O)c4ccccc4)[C@H]21)C3(C)C [Docetaxel] + Cc1nc(NC(=O)N2CCC[C@H]2C(N)=O)sc1-c1ccnc(C(C)(C)C(F)(F)F)c1 [Alpelisib] (partner 2 µM)", "LCLC-97TM1", 0.121],
  ["CC(=O)O[C@@]12CO[C@@H]1C[C@H](O)[C@@]1(C)C(=O)[C@H](O)C3=C(C)[C@@H](OC(=O)[C@H](O)[C@@H](NC(=O)OC(C)(C)C)c4ccccc4)C[C@@](O)([C@@H](OC(=O)c4ccccc4)[C@H]21)C3(C)C [Docetaxel] + COc1cc2c(Oc3ccc(NC(=O)C4(C(=O)Nc5ccc(F)cc5)CC4)cc3F)ccnc2cc1OCCCN1CCOCC1 [Foretinib] (partner 0.25 µM)", "LCLC-97TM1", 0.697],
  ["CC(=O)O[C@@]12CO[C@@H]1C[C@H](O)[C@@]1(C)C(=O)[C@H](O)C3=C(C)[C@@H](OC(=O)[C@H](O)[C@@H](NC(=O)OC(C)(C)C)c4ccccc4)C[C@@](O)([C@@H](OC(=O)c4ccccc4)[C@H]21)C3(C)C [Docetaxel] + CC(C)C[C@H](NC(=O)[C@H](Cc1ccccc1)NC(=O)c1cnccn1)B(O)O [Bortezomib] (partner 0.002 µM)", "LCLC-97TM1", 0.106]
]}

# input compound: CC(=O)O[C@@]12CO[C@@H]1C[C@H](O)[C@@]1(C)C(=O)[C@H](O)C3=C(C)[C@@H](OC(=O)[C@H](O)[C@@H](NC(=O)OC(C)(C)C)c4ccccc4)C[C@@](O)([C@@H](OC(=O)c4ccccc4)[C@H]21)C3(C)C [Docetaxel] + CCNC(=O)c1noc(-c2cc(C(C)C)c(O)cc2O)c1-c1ccc(CN2CCOCC2)cc1 [Luminespib] (partner 0.01 µM) ; wanted: its relative viability
0.548

* * *

System: H3255
Assay: relative viability (nuclei count vs DMSO), 5 days (fraction); higher = more cells survive
Settings: first compound 0.05 µM
Endpoint: relative viability
Lab note: jot the number down without any unit.

{"columns": ["Molecule", "Endpoint", "Readout Number"],
 "data": [
  ["Nc1ccn([C@@H]2O[C@H](CO)[C@@H](O)[C@@H]2O)c(=O)n1 [Cytarabine] + C[C@@H](Oc1cc(-c2cnn(C3CCNCC3)c2)cnc1N)c1c(Cl)ccc(F)c1Cl [Crizotinib] (partner 1 µM)", "relative viability", 0.776]
]}

The record that follows has no relative viability shown yet.
# input molecule: COc1cc2nccc(Oc3ccc(NC(=O)Nc4cc(C)on4)c(Cl)c3)c2cc1OC [Tivozanib] + C[C@]1(O)C[C@@H](c2nc(-c3ccc4ccc(-c5ccccc5)nc4c3)c3c(N)nccn32)C1 [Linsitinib] (partner 1 µM) ; wanted: its relative viability
1.09
